Here, each record is paired with measured folding stability dG data.
B1: r16_88_TrROS_Hall (parent)
chain: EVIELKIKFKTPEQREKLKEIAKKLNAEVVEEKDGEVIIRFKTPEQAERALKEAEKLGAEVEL

Variants of: B1
PROCEDURE_TEXT: folding stability dG (cDNA display proteolysis); higher = more stable
EXPERIMENTAL_CONTEXT: PBS, room temperature
Answer with a number only, understood to be in kcal/mol.

Entry `EVIELKIKFKTPEQREKLKEIAKKLPAEVVEEKDGEVIIRFKTPEQAERALKEAEKLGAEVEL` has what folding stability dG?
3.84

Name the reported folding stability dG value associated with the variant `EVIELKIKFKTPEQREKLKEIAKKLKAEVVEEKDGEVIIRFKTPEQAERALKEAEKLGAEVEL`
4.44

Look up folding stability dG for this variant: `EVIELKIKFKTPEQREKLKEIAKKLNQEVVEEKDGEVIIRFKTPEQAERALKEAEKLGAEVEL`
3.88

Return reported folding stability dG; argument: `EVIELKIKFKTPEQREKLKEIAKKLNAEVVEEKDGEVIIRFKTPEQAERALKEAEYLGAEVEL`
4.41

I'd like to know its folding stability dG. The variant in question is `EVIELKIKFKTPEQREKLKEMAKKLNAEVVEEKDGEVIIRFKTPEQAERALKEAEKLGAEVEL`
4.43

Reported folding stability dG for `EVIELKIKFKTPEQREKLKEIAKKLNAEVVEEKDGEVIIRFKTPEQAERALKEAEKLGAEVEK` : what is it?
4.56

Name the recorded folding stability dG for `EVIELKIKFKTPEQREKLKEIAKKLNAEVVEEKDGEVIIRFWTPEQAERALKEAEKLGAEVEL` .
4.26

Looking for the measured folding stability dG of `EVIELKIKFKTPEQREKLKEIAPKLNAEVVEEKDGEVIIRFKTPEQAERALKEAEKLGAEVEL` , can you help?
3.93

Dear colleague, I am looking for the recorded folding stability dG of the following variant: `EVIELKIKFKFPEQREKLKEIAKKLNAEVVEEKDGEVIIRFKTPEQAERALKEAEKLGAEVEL`
4.54

Given the entry `EVIELKIKFKTPEQREKLKEIAKKLNAEVVEEKDGEVIIRFKTPEQAEYALKEAEKLGAEVEL` , report its measured folding stability dG.
4.93

New cases:
Given the variant `EVIELKIKFKTPEQREKLKEIAKKLNAEVVEEKHGEVIIRFKTPEQAERALKEAEKLGAEVEL` , what is its reported folding stability dG?
4.52

Look up folding stability dG: `EVIELKIKFKTPEQREKLKEIAKKLNAEVVYEKDGEVIIRFKTPEQAERALKEAEKLGAEVEL`
4.46

folding stability dG lookup needed for `EVIELKIKFKTPEQREKLKEIAKKLNAEVVEEKDGEQIIRFKTPEQAERALKEAEKLGAEVEL` , thanks.
4.07

Requested read-out: folding stability dG. Entry: `EVIELKIKFKTPEQREKLKEIAKKLNAEVVEEKDGEVIIRFKTPEQAERALKEAEKLGCEVEL`
4.17

What does the data say about its folding stability dG? Entry: `EVILLKIKFKTPEQREKLKEIAKKLNAEVVEEKDGEVIIRFKTPEQAERALKEAEKLGAEVEL`
4.56

# query: folding stability dG of entry `EVIELKIKFKTPEQREKLKGIAKKLNAEVVEEKDGEVIIRFKTPEQAERALKEAEKLGAEVEL`
4.32

Bench note: what folding stability dG did `EVIELKIKFKTPEQREKLKEIAKKLNAEVVEEKDGEVIIRFKTNEQAERALKEAEKLGAEVEL` show?
4.55

Give its folding stability dG value. Item: `EKIELKIKFKTPEQREKLKEIAKKLNAEVVEEKDGEVIIRFKTPEQAERALKEAEKLGAEVEL`
4.33

// returns reported folding stability dG for input `EVIELKIKFKTPEQREKLQEIAKKLNAEVVEEKDGEVIIRFKTPEQAERALKEAEKLGAEVEL`
4.3
